All values here come from patent US20180057604A1.

Overview of reported pKd across a group of binders:
assayed.target: T1, murine BACE1 ECD
T1 construct: analyte of the Octet assay (200 nM) and enzyme of the first short substrate assay
T1 sequence (single chain, as listed by the source limits assumed): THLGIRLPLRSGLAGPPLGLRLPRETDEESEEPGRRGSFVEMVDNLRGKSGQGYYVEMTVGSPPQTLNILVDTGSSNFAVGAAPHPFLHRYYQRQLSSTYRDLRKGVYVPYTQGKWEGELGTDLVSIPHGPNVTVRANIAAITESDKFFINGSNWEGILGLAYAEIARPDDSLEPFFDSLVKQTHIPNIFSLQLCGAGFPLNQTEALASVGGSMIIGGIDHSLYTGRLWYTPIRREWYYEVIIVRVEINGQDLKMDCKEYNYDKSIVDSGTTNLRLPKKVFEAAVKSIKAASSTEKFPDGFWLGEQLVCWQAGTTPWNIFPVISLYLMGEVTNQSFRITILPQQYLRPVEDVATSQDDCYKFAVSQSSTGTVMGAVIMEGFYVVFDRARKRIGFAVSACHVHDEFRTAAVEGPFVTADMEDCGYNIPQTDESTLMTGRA
assay.explanation: Octet, pH 5.0;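 note: antibodies captured on anti-human capture sensor tips, dissociation monitored in PBS with BSA buffer, kinetics fitted with a one-to-one binding model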
pKd: −log10 of the molar value.
reported.property: pKd

| binder | meas.value |
| --- | --- |
| 5987 (antibody, V domains shown, anti-BACE1 IgG) VH: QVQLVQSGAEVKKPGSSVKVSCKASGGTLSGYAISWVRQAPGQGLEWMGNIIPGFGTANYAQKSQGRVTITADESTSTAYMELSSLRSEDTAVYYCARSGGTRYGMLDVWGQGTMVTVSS VL: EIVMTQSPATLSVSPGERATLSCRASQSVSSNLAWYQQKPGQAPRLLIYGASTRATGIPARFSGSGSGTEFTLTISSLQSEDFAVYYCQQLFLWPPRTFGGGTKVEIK | > 9.54 |
| 6290 (antibody, V domains shown, anti-BACE1 IgG) VH: QLQLQESGPGLVKPSETLSLTCTVSGGSISSSSYYWGWIRQPPGKGLEWIGMIYYSGSTWYNPSLKSRVTISVDTSKNQFSLKLSSVTAADTAVYYCARVGLGVSYFDLWGRGTLVTVSS VL: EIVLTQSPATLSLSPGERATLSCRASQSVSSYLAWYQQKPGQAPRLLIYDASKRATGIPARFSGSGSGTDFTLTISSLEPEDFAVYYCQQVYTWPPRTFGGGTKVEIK | > 9.57 |
| 6274 (antibody, V domains shown, anti-BACE1 IgG) VH: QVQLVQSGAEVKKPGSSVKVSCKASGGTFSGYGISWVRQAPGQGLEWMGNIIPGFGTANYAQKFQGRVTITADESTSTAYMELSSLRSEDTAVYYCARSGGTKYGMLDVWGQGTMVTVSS VL: EIVMTQSPATLSVSPGERATLSCRASQSVSSHLAWYQQKPGQAPRLLIYGASTRATGIPARFSGSGSGTEFTLTISSLQSEDFAVYYCQQLILWPPRTFGGGTKVEIK | 9.12 |
